# System: M14
# experiment-summary: NCI tumour cell line growth inhibition, 48 h
The source made the active and inactive calls. No stated cut-off is given here; in the data, active = GI50 up to about 1.1 µM and inactive = higher.
measured-parameter: GI50

Quick note, GI50 for C=CCNC(=O)N(CCCC(NC(C)=O)C(=O)NCc1ccccc1)Cc1ccccc1 (stereo unspecified) landed at > 100 µM (inactive)

Quick note, GI50 for OC(CCN1CCN(CCOC(c2ccc(F)cc2)c2ccc(F)cc2)CC1)c1ccc(Br)cc1 (stereo unspecified) landed at 1.96 µM (inactive)

Quick note, GI50 for `COc1cc2c(cc1OC)-c1cc3cc(OC)c(OC)cc3n1CC2` landed at 23.4 µM (inactive)

Quick note, GI50 for Cc1ccc2c(c1)C=CC(C#N)N2C(=O)Oc1ccccc1 (stereo unspecified) landed at 40.8 µM (inactive)

Quick note, GI50 for `O=C(C[N+]12CN3CN(CN(C3)C1)C2)c1ccc(-c2ccccc2)cc1` landed at 21.7 µM (inactive)

Quick note, GI50 for `Nn1c(CNc2ccc(-c3nnc(Nc4ccc(Cl)cc4)n3N)cc2)nnc1Nc1ccc(Cl)cc1` landed at 51.6 µM (inactive)

Quick note, GI50 for CCOC(=O)C(O)(NC(=O)Nc1ccc(F)cc1)C(F)(F)F (stereo unspecified) landed at > 100 µM (inactive)

Quick note, GI50 for NCCO/C=C/C(N)C(=O)O (stereo unspecified) [AMINOETHOXYVINYLGLYCINE] landed at > 100 µM (inactive)

Quick note, GI50 for `COc1cccc(C(=O)O)c1Cc1cccc2ccccc12` landed at > 100 µM (inactive)

Quick note, GI50 for c1ccc2[nH]c(-c3cscn3)nc2c1 [THIABENDAZOLE] landed at > 100 µM (inactive)

Quick note, GI50 for `Cc1cc(Cl)ccc1OCC(=O)Oc1c(Cl)c(Cl)c(Cl)c(Cl)c1Cl` landed at 26.6 µM (inactive)

Quick note, GI50 for `CCCCc1c(C(=O)OC(C)(C)C)cc(C#Cc2cc(C(=O)OC(C)(C)C)c(CCCC)c(C(=O)OC(C)(C)C)c2)cc1C(=O)OC(C)(C)C` landed at > 100 µM (inactive)

Quick note, GI50 for Cc1ccc(/S(Cc2ccccc2)=N\S(=O)(=O)c2ccc(C)cc2)cc1 (stereo unspecified) landed at > 100 µM (inactive)

Quick note, GI50 for `Cc1cc2c(O)c(c1)COCc1cc(C)cc(c1O)COCc1cc(C)cc(c1O)COC2` landed at > 100 µM (inactive)

Quick note, GI50 for CC1(C)C(=O)C2(C#N)CCC1C2 (stereo unspecified) landed at > 100 µM (inactive)

Quick note, GI50 for O=C(OC1C=C=CS(=O)(=O)CC#C/C=C\1)c1cnc2ccccc2n1 (stereo unspecified) landed at > 100 µM (inactive)

Quick note, GI50 for `O=C(CSc1nc(=O)c(-c2ccccc2NC(=O)C(F)(F)F)n[nH]1)NC(=O)Nc1ccccc1` landed at > 100 µM (inactive)

Quick note, GI50 for `CC(=O)O[C@@H]1C(=O)N(c2ccccc2)[C@@H]1c1cc2ccccc2c2ccccc12` landed at 55.3 µM (inactive)

Quick note, GI50 for `O=C1CCC(=O)N1CNc1ccc2c(c1)Sc1ccccc1O2` landed at 27.2 µM (inactive)

Quick note, GI50 for `N=C(N)NNC(=O)CCCCCCCC(=O)NNC(=N)N` landed at > 100 µM (inactive)

Quick note, GI50 for `C[P+](c1ccccc1)(c1ccc(Cl)cc1)c1ccc(Cl)cc1` landed at 11.6 µM (inactive)
